Entries and their MIC
System: Candida krusei ATCC 6258
procedure-details: In vitro antifungal broth microdilution test
Type: cell-based
assay-setup: Pichia kudriavzevii, ATCC6258; 24h, RPMI 1640, pH 7.0, 35 °C; read-out: MIC/IC80 CK
endpoint-name: MIC

> print(dat)
                                    compound  observed.value
 1  OC(Cn1cncn1)(Cn1cncn1)c1ccc(F)cc1F [FLU, Fluconazole, reference compound]         3.91 µM
 2  O=C(O)c1ccc(NC(=O)c2c(O)c3cc(C(=O)O)ccc3[nH]c2=O)cc1 [Compound 11]        > 500 µM
 3  O=C(O)c1cc2c(O)cc(=O)[nH]c2cc1O [Compound 4]        > 500 µM
 4  O=c1[nH]c2ccccc2c(O)c1[N+](=O)[O-] [Compound 5, 4-Hydroxy-3-nitroquinolin-2(1H)-one]        > 500 µM
 5  Nc1c(O)c2ccccc2[nH]c1=O [Compound 6, 3-Amino-4-hydroxyquinolin-2(1H)-one]        > 500 µM
 6  O=C(/C=C/c1ccccc1)Nc1c(O)c2ccccc2[nH]c1=O [Compound 7]        > 125 µM
 7  O=C(O)c1ccc2[nH]c(=O)cc(O)c2c1O [Compound 3]        > 500 µM
 8  O=C(O)c1ccc2[nH]c(=O)c(/N=N/c3cc(Cl)c([N+](=O)[O-])cc3Cl)c(O)c2c1 [Compound 8]          250 µM
 9  O=C(O)c1c(O)c2ccccc2[nH]c1=O [Compound 10]        > 500 µM
10  Cc1ccc2[nH]c(=O)cc(O)c2c1 [Compound 2, 4-Hydroxy-6-methylquinolin-2(1H)-one]        > 500 µM
11  CCOC(=O)c1c(O)c2ccccc2[nH]c1=O [Compound 9]        > 500 µM
